- Measured Target: Recombinant human CBP containing the bromodomain (CBP-BD (1043-1159)) (Homo sapiens, UniProt Q92793)
- Construct: Recombinant human CBP bromodomain (CBP-BD (1043-1159))
- Sequence (Q92793 1081-1197): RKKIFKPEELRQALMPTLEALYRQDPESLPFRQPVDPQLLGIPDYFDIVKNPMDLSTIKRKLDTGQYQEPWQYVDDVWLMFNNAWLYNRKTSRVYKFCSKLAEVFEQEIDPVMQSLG
- Experiment Notes: CBP Alphascreen binding assay
- Assay Setup: read-out: CREBBP (CBP) IC50
Property Name: IC50

Observe how each entry below is paired with its result.
{"Compound": "Cc1noc(C)c1-c1cnc2c(c1)c(-c1ccc(C(=O)O)c(C(F)(F)F)c1)cn2C(c1ccccn1)C1CCCC1 (stereo not shown)", "IC50": "0.0001 to 1 µM"}
{"Compound": "Cc1noc(C)c1-c1cnc2c(c1)c(-c1ccc(C(=O)O)nc1)cn2C(c1ccccn1)C1CCCC1 (stereo not shown)", "IC50": "0.0001 to 1 µM"}

Look at this compound and give its reported IC50. CCOc1cc(C(=O)O)c(F)cc1-c1cn(C2CCN(C(=O)OC(C)(C)C)CC2)c2ncc(-c3c(C)noc3C)cc12 0.0001 to 1 µM

What value of IC50 has been recorded for this entry: COc1cc(-c2c(C(F)(F)F)n([C@@H](C)c3ccccn3)c3cc(-c4c(C)noc4C)cnc23)ccc1C(=O)O 1 to 8 µM

What value of measured IC50 is listed for Cc1noc(C)c1-c1cnc2c(-c3ccccc3)cn(-c3c(OCC(F)(F)F)cc(C(=O)O)cc3OCC(F)(F)F)c2c1 ? 0.0001 to 1 µM

Bench note: what IC50 did COc1ccc(C(=O)O)cc1-c1c(C(F)(F)F)n([C@@H](C)c2ccccn2)c2cc(-c3c(C)noc3C)cnc12 show? 1 to 8 µM

What does the data say about its IC50? Entry: CCOc1cc(C(=O)O)nc(OCC)c1-c1cn(-c2cn(CC)nc2C)c2ncc(-c3c(C)noc3C)cc12 0.0001 to 1 µM

---

- Measured Target: Recombinant human CBP containing the bromodomain (CBP-BD (1043-1159)) (Homo sapiens)
- Construct: Recombinant human CBP bromodomain (CBP-BD (1043-1159))
- Experiment Notes: CBP Alphascreen binding assay
- Assay Setup: read-out: CREBBP (CBP) IC50
Property Name: IC50

{"Compound": "Cc1noc(C)c1-c1cnc2c(c1)c(-c1ccc(C(=O)O)cc1OC(F)(F)F)cn2C1CCNCC1", "IC50": "0.0001 to 1 µM"}

Reported IC50, compound Cc1noc(C)c1-c1cnc2c(c1)c(-c1ccc(C(=O)O)cc1)cn2C(C)c1ccccn1 (stereo not shown) : ____ 1 to 8 µM

What value of IC50 has been reported for the following compound? COc1cc(C(=O)O)cc(C)c1-c1cn(-c2ccccc2)c2ncc(-c3c(C)noc3C)cc12 0.0001 to 1 µM

Look up IC50 for this compound: Cc1noc(C)c1-c1cnc2c(c1)c(-c1ccc(C(=O)O)cc1OC(F)F)cn2[C@@H](C)c1ccccn1 0.0001 to 1 µM

For the compound CCOc1cc(C(=O)O)cc(OCC)c1-n1cc(-c2cnn(CC(=O)N(C)C)c2)c2ncc(-c3c(C)noc3C)cc21 , what IC50 is on record? 0.0001 to 1 µM

Bench note: what IC50 did Cc1noc(C)c1-c1cnc2c(c1)c(-c1cnn(C(C)(C)C(=O)O)c1)cn2C(c1ccccn1)C1CCCC1 (stereo not shown) show? 0.0001 to 1 µM

// returns reported IC50 for input Cc1noc(C)c1-c1cnc2c(c1)c(-c1cccc(C(=O)O)c1)cn2Cc1cccc(OC(F)(F)F)c1 0.0001 to 1 µM

Given Cc1noc(C)c1-c1cnc2c(c1)c(-c1ccc(CC(=O)O)cc1)cn2C(c1ccccn1)C1CCCC1 (stereo not shown) , state its recorded IC50. 0.0001 to 1 µM

---

- Measured Target: Recombinant human EP300 containing the bromodomain (EP300-BD (1040-1161)) (Homo sapiens, UniProt Q09472)
- Construct: Recombinant human EP300 bromodomain (EP300-BD (1040-1161))
- Sequence (Q09472 1040-1161): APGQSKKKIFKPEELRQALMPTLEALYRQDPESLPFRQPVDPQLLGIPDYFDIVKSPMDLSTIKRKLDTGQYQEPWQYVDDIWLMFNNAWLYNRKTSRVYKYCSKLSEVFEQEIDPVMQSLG
- Experiment Notes: EP300 Alphascreen binding assay
- Protocol: EP300 Alphascreen Binding Assay Binding of compounds of Formula (I) with EP300 was assessed using Alphascreen™ binding assay. The inhibition of the interaction between the EP300 bromodomain and its acetylated target protein was measured quantitatively using recombinant EP300 protein, an acetylated Histone 3 peptide and AlphaScreen™ technology. […] The close proximity allows the singlet oxygen produced by laser excitation of the donor beads to reach the acceptor beads and generate a luminescence signal. […]
pIC50: −log10 of the molar value.
Property Name: pIC50

Example entries and their recorded answers appear below.
{"Molecule": "CCOc1cc(C(=O)O)cc(OCC)c1-n1cc(CC2CCC2)c2ncc(-n3c(C)nnc3C)cc21", "pIC50": "5.10 to 6.00"}
{"Molecule": "CCOC(=O)c1cc(-c2cn(-c3ccc(F)cc3F)c3ncc(-c4c(C)noc4C)cc23)c(OCC)cc1O", "pIC50": "3.00 to 5.10"}
{"Molecule": "Cc1noc(C)c1-c1cnc2c(c1)c(-c1ccc(C(=O)O)cc1OC(F)(F)F)cn2C1CCN(S(C)(=O)=O)CC1", "pIC50": "6.00 to 10.00"}
{"Molecule": "Cc1noc(C)c1-c1cnc2c(c1)c(-c1c(Cl)cc(C(=O)O)cc1Cl)cn2[C@@H](C)c1ccccn1", "pIC50": "6.00 to 10.00"}

Look up pIC50 for this molecule: Cc1noc(C)c1-c1cnc2c(CC3CCC3)cn(-c3ccc(O)nc3)c2c1 5.10 to 6.00

Item Cc1noc(C)c1-c1cnc2c(c1)c(-c1ccc(C(=O)O)cc1OC(F)(F)F)cn2C1CCC(C#N)C1 (centres unmarked) has what recorded pIC50? 6.00 to 10.00

Requested read-out: pIC50. Entry: Cc1noc(C)c1-c1cnc2c(CC3CCC3)cn(-c3ccc(C(=O)O)c4ccoc34)c2c1 6.00 to 10.00

Quick one: pIC50 of Cc1noc(C)c1-c1cnc2c(c1)c(-c1ccc(C(=O)O)cc1OC(F)(F)F)cn2-c1ccncc1Cl ? 6.00 to 10.00

---

- Measured Target: Recombinant human BRD4 containing dual bromodomains (BRD4-BD12 (1-477)) (Homo sapiens)
- Construct: Recombinant human BRD4 containing dual bromodomains (BRD4-BD12 (1-477))
- Experiment Notes: BRD4 Alphascreen binding assay
pIC50: −log10 of the molar value.
Property Name: pIC50

{"Molecule": "Cc1noc(C)c1-c1cnc2c(-c3ccccc3Cl)cn(C(C)(c3ccccn3)c3ccccn3)c2c1", "Reported": "6.00 to 10.00"}
{"Molecule": "Cc1noc(C)c1-c1cnc2c(c1)c(-c1ccc(C(=O)O)cc1OC(C)C)cn2-c1cnn(C(F)F)c1C", "Reported": "3.00 to 5.10"}
{"Molecule": "Cc1noc(C)c1-c1cnc2c(-c3cccc(C(=O)O)c3C)c(C(F)(F)F)n([C@@H](C)c3ccccn3)c2c1", "Reported": "3.00 to 5.10"}

Which measured pIC50 belongs to Cc1noc(C)c1-c1cnc2c(c1)c(-c1ccc(C(=O)O)cc1OCC(F)(F)F)cn2[C@@H](C)c1ccccn1 , tested on Recombinant human BRD4 containing dual bromodomains (BRD4-BD12 (1-477)) (Homo sapiens)? 3.00 to 5.10

Missing value: pIC50, Recombinant human BRD4 containing dual bromodomains (BRD4-BD12 (1-477)) (Homo sapiens), entry COC(=O)c1ccc(-c2cn(S(=O)(=O)c3ccc(C)cc3)c3ncc(-c4c(C)noc4C)cc23)cc1 . Fill in? 3.00 to 5.10

So what pIC50 did Cc1cc(C(=O)O)ccc1-c1c(C(F)(F)F)n([C@@H](C)c2ccccn2)c2cc(-c3c(C)noc3C)cnc12 get with Recombinant human BRD4 containing dual bromodomains (BRD4-BD12 (1-477)) (Homo sapiens)? 3.00 to 5.10

Which measured pIC50 belongs to Cc1noc(C)c1-c1cnc2c(-c3ccc(C(=O)O)cc3C#N)c(C(F)(F)F)n([C@@H](C)c3ccccn3)c2c1 , tested on Recombinant human BRD4 containing dual bromodomains (BRD4-BD12 (1-477)) (Homo sapiens)? 3.00 to 5.10

Which measured pIC50 belongs to Cc1noc(C)c1-c1cnc2c(Cc3ccccn3)cn(-c3ccc(C(=O)O)cn3)c2c1 , tested on Recombinant human BRD4 containing dual bromodomains (BRD4-BD12 (1-477)) (Homo sapiens)? 3.00 to 5.10

What is its pIC50 for Recombinant human BRD4 containing dual bromodomains (BRD4-BD12 (1-477)) (Homo sapiens)? Entry: Cc1nnn(C)c1-c1cnc2c(c1)c(-c1cccc(C(=O)O)c1)cn2[C@@H](C)c1ccccn1 5.10 to 6.00

---

In this section we review reported pIC50 values for a set of compounds.
- Measured Target: Recombinant human EP300 containing the bromodomain (EP300-BD (1040-1161)) (Homo sapiens)
- Construct: Recombinant human EP300 bromodomain (EP300-BD (1040-1161))
- Experiment Notes: EP300 Alphascreen binding assay
pIC50: −log10 of the molar value.

Recorded pIC50, per entry:
{"Compound": "Cc1noc(C)c1-c1cnc2c(c1)c(-c1cnn(C(C)(C)C(=O)O)c1)cn2C(c1ccccn1)C1CCCC1 (stereo not shown)", "pIC50": "6.00 to 10.00"}
{"Compound": "CCOc1cc(C(=O)O)cc(OCC)c1-n1cc(-c2cnn(CC(C)(C)O)c2)c2ncc(-c3c(C)noc3C)cc21", "pIC50": "6.00 to 10.00"}
{"Compound": "Cc1noc(C)c1-c1cnc2c(c1)c(-c1ccc(C(=O)O)cc1OC1CCC1)cn2[C@@H](C)c1ccccn1", "pIC50": "6.00 to 10.00"}

In the following, a different compound is considered.
Look up pIC50 for this compound: COc1cc(C(=O)O)cc(OCC2CC2)c1-c1cn([C@@H](C)c2ccccn2)c2ncc(-c3c(C)noc3C)cc12 6.00 to 10.00
